experiment: APR_HepG2_CellLoss_72hr: Apredica 72-hour HepG2 Assay for Cell Loss (AID 2282915); conditions: high-content imaging
Active and inactive are the calls of the source. The calls were made as follows: active = hit-call score of the fitted dose curve at least 0.9, where 1 is the maximum; inactive = score below 0.9.
parameter: AC50

## Task Give reported AC50 value for Cc1nn(-c2cc(NS(C)(=O)=O)c(Cl)cc2Cl)c(=O)n1C(F)F
## Result inactive

## Task Answer with reported AC50 of Nc1c(Cl)cc([N+](=O)[O-])cc1Cl
## Result 95.3 µM (active)

## Task Give the reported AC50 for this molecule. O=c1ccc(=O)[nH][nH]1
## Result inactive

## Task Please report AC50 for the following molecule: CNC(=O)ON=C(SC)C(=O)N(C)C
## Result 100 µM (active)

Below are 6 molecules. Give each one its AC50.
1. CCOP(=S)(OCC)Oc1ccc2c(C)c(Cl)c(=O)oc2c1
2. CSC1=N[C@@](C)(c2ccccc2)C(=O)N1Nc1ccccc1
3. CCCOCC(=Nc1ccc(Cl)cc1C(F)(F)F)n1ccnc1
4. CN(C)[C@@H]1C(=O)C(C(N)=O)=C(O)[C@@]2(O)C(=O)C3=C(O)c4c(O)cccc4[C@@](C)(O)[C@H]3[C@H](O)[C@@H]12
5. CON=C(C(=O)OC)c1ccccc1CON=C(C)c1cccc(C(F)(F)F)c1
6. CCOC(=O)COc1cc(-c2nn(C)c(OC(F)F)c2Cl)c(F)cc1Cl

## Result
["49.1 µM (active)", "12.2 µM (active)", "100 µM (active)", "inactive", "3.36 µM (active)", "inactive"]

---

assay: BSK_3C_Vis: BioMAP Diversity Plus: 3C Assay for Morphology Visualization (AID 2283025); conditions: primary human endothelial cells (HUVEC);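 also: fitted both ways so gain or loss versus DMSO counts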
The source made the active and inactive calls. Rule for the calls: active = hit-call score of the fitted dose curve at least 0.9, where 1 is the maximum; inactive = score below 0.9.
The reply should be one of these categories: active, inactive

Solved cases below.
## Task // outcome(item) with item = CON=C(C(=O)OC)c1ccccc1CON=C(C)c1cccc(C(F)(F)F)c1
## Result inactive

## Task # outcome recorded in this test, key = CC(COc1ccc(Oc2ccccc2)cc1)Oc1ccccn1 (stereo not given)
## Result inactive

## Task Called result for CC(C1CC1)C(O)(Cn1cncn1)c1ccc(Cl)cc1 (stereo not given)
## Result inactive

## Task Please share the test call associated with CCOP(=S)(OCC)Oc1cc(C)nc(C(C)C)n1 .
## Result inactive

## Task Dear all, I need the recorded test outcome for CCCSP(=O)(OCC)SCCC , thank you.
## Result inactive

## Task Tell me the recorded outcome of this test for CC1(C(=O)Nc2ccc(O)c(Cl)c2Cl)CCCCC1 .
## Result inactive

## Task Assay result, entry CC(C)[C@H](C(=O)O[C@H](C#N)c1cccc(Oc2ccccc2)c1)c1ccc(Cl)cc1 — outcome?
## Result inactive

## Task Write down the call the test reported for this molecule. Item: CSC1=N[C@@](C)(c2ccccc2)C(=O)N1Nc1ccccc1
## Result inactive

Continuing:
## Task What call does the record list for CCCCN(CC)c1c([N+](=O)[O-])cc(C(F)(F)F)cc1[N+](=O)[O-] ?
## Result active

## Task Which result was noted for this molecule in the test: FC(F)C(F)(F)OCC(Cn1cncn1)c1ccc(Cl)cc1Cl (stereo not given)
## Result active

---

read-out: Lipase C (LIPC), LIPC (gene 3990); test: LTEA_HepaRG_LIPC: Life Technologies and Expression Analysis (LTEA) Assay for Lipase C (LIPC) using HepaRG (AID 2283514); conditions: mRNA level, 48 h; actives raise or lower the signal
Activity calls are given as the source filed them. How the source made its calls: active means hit-call score of the fitted dose curve at least 0.9, where 1 is the maximum; inactive means score below 0.9.
I would appreciate it if you answered using one of these outcomes: Y (active), N (inactive)

Example cases with answers are listed next.
## Task Each molecule tested received a call. Report the one for C#CCC1=C(C)C(OC(=O)C2C(C=C(C)C)C2(C)C)CC1=O (configuration not stated) .
## Result N

## Task Look up the recorded call for Nc1nc(N)nc(NC2CC2)n1 in this test.
## Result N

## Task Give the logged outcome of this assay for the following molecule: CCOP(=S)(OCC)SCCSCC
## Result N

## Task Lab log entry: CCCCOC(=O)[C@@H](C)Oc1ccc(Oc2ccc(C#N)cc2F)cc1 — outcome as called in the assay?
## Result N

## Task Identify the outcome logged in this assay for the molecule shown: CCCCOC(=O)c1ccccc1C(=O)O
## Result N

More entries:
## Task Given CCCOCC(=Nc1ccc(Cl)cc1C(F)(F)F)n1ccnc1 , state the outcome it received in this test.
## Result Y

## Task Recorded test call requested for O=c1ccc(=O)[nH][nH]1
## Result N

## Task What classification did CON=C(C(=O)OC)c1ccccc1CON=C(C)c1cccc(C(F)(F)F)c1 end up with in this test?
## Result N

## Task Tell me the assay call for CN(C)NC(=O)CCC(=O)O please.
## Result N
